Item-by-item account of solubility (g/100 g solution)
assay: xn = mol fraction of the nth substance listed, in the solute-free solvent; settings: 328.15 K; x2 = 0.5
The reply should be a number, written without any unit.

Take a look at these entries with their results.
1. CN1CCN(C(=O)OC2c3nccnc3C(=O)N2c2ccc(Cl)cn2)CC1 (centres undefined) + CC(C)=O + O
1.75
2. CN1CCN(C(=O)OC2c3nccnc3C(=O)N2c2ccc(Cl)cn2)CC1 (centres undefined) + C1CCOC1 + O
4.15
3. CN1CCN(C(=O)OC2c3nccnc3C(=O)N2c2ccc(Cl)cn2)CC1 (centres undefined) + CCO + O
2.51

Please turn your attention to the following entry.
Requested read-out: solubility (g/100 g solution). Entry: CN1CCN(C(=O)OC2c3nccnc3C(=O)N2c2ccc(Cl)cn2)CC1 (centres undefined) + CC#N + O
5.56
